The values you see were collected from the NIST ThermoML archive (doi:10.1016/j.jct.2010.09.008).

I'd be grateful if you could share measured relative permittivity at zero frequency for these entries.
test: relative permittivity at zero frequency (dimensionless); conditions: 288.15 K; 101.33 kPa; Liquid; AC method
Lab note: record the figure alone, no unit after it.

[in] GET /values?readout=relative permittivity at zero frequency&item= CCCCCCC
[out] 1.94

[in] Entry under review: COCCOCCOCCOCCOC . Reported relative permittivity at zero frequency?
[out] 8.04

[in] What does the record list as relative permittivity at zero frequency for COCCOCCOC ?
[out] 7.69

[in] So what's the measured relative permittivity at zero frequency for this one? COCCOCCOCCOC
[out] 7.89

[in] Suppose we examine the compound COCCOC ; what relative permittivity at zero frequency value has been reported?
[out] 7.41

----------
conditions: 288.15 K; 101.33 kPa; Liquid; Vibrating tube method
Numbers after ± are expanded uncertainties.
readoutType: mass density
Put down the number, then write its unit next to it.

[in] Return reported mass density; argument: COCCOCCOCCOC [2,5,8,11-tetraoxadodecane]
[out] 990.08 ± 0.29 kg/m3

[in] I'd like to know its mass density. The compound in question is COCCOC [1,2-dimethoxyethane]
[out] 872.05 ± 0.22 kg/m3

[in] Any idea what mass density was measured for COCCOCCOCCOCCOC [2,5,8,11,14-pentaoxapentadecane] ?
[out] 1015.96 ± 0.3 kg/m3

[in] Give the measured mass density of CCCCCCC [heptane] .
[out] 688.03 ± 0.3 kg/m3

[in] Value lookup for mass density; key = COCCOCCOC [2,5,8-trioxanonane]
[out] 949.34 ± 0.22 kg/m3
